Cited source: patent US20020137929A1

Known Preemergence herbicidal rating CASOB of a selection of molecules
tested on: CASOB (Sicklepod); assay: Preemergence herbicidal evaluation; assay type: in vivo, Cassia obtusifolia; details: rate 0.0313 kg/ha; rated 4-5 weeks after treatment; rating scale 0-9
Just the number.

Solved entries:
> print(dat)
                                 mol.smiles  endpoint.result
1  Cn1c(C(F)(F)F)cc(=O)n(-c2cc(N=C3SCC(=O)N3Cc3ccc(Cl)cc3)c(Cl)cc2F)c1=O              1.0
2  Cn1c(C(F)(F)F)cc(=O)n(-c2cc(N=C3SCC(=O)N3Cc3ccc(Br)cc3)c(Cl)cc2F)c1=O              0.0
3  Cc1cccc(CN2C(=O)CSC2=Nc2cc(-n3c(=O)cc(C(F)(F)F)n(C)c3=O)c(F)cc2Cl)c1              1.0

Continue with the next molecule.
What Preemergence herbicidal rating CASOB value was documented for this molecule, COc1ccc(CN2C(=O)CSC2=Nc2cc(-n3c(=O)cc(C(F)(F)F)n(C)c3=O)c(F)cc2Cl)c(OC)c1 ? 0.0

---

tested on: CASOB (Sicklepod); test: Postemergence herbicidal evaluation; type: in vivo, Cassia obtusifolia; settings: postemergence, rate 0.0313 kg/ha
Known herbicidal rating CASOB of a selection of compounds

Solved entries:
> print(dat)
                                   compound            quantity.kind  endpoint.result
1  CSCCN1C(=O)CSC1=Nc1cc(-n2c(=O)cc(C(F)(F)F)n(C)c2=O)c(F)cc1Cl [Compound 157]  herbicidal rating CASOB              0.0
2  CCOC(=O)CN1C(=O)C(C(=O)OCC)SC1=Nc1cc(-n2c(=O)cc(C(F)(F)F)n(C)c2=O)c(F)cc1Cl (stereo not drawn) [Compound 127]  herbicidal rating CASOB              0.0
3  Cn1c(C(F)(F)F)cc(=O)n(-c2cc(N=C3SCC(=O)N3CC(F)(F)F)c(Cl)cc2F)c1=O [Compound 163]  herbicidal rating CASOB              0.0
4  Cn1c(C(F)(F)F)cc(=O)n(-c2cc(N=C3SCC(=O)N3C3CC3)c(Cl)cc2F)c1=O [Compound 152]  herbicidal rating CASOB              0.0
5  Cn1c(C(F)(F)F)cc(=O)n(-c2cc(N=C3SCC(=O)N3Cc3ccc(Cl)cc3)c(Cl)cc2F)c1=O [Compound 145]  herbicidal rating CASOB              2.0

What herbicidal rating CASOB value was documented for this compound, Cn1c(C(F)(F)F)cc(=O)n(-c2cc(N=C3SCC(=O)N3Cc3ccccc3Cl)c(Cl)cc2F)c1=O [Compound 143] ? 1.0

Cn1c(C(F)(F)F)cc(=O)n(-c2cc(N=C3SCC(=O)N3Cc3ccc(Br)cc3)c(Cl)cc2F)c1=O [Compound 148] , same question. 3.0

COC(=O)CSCCN1C(=O)CSC1=Nc1cc(-n2c(=O)cc(C(F)(F)F)n(C)c2=O)c(F)cc1Cl [Compound 158] , same question. 4.0

COCCN1C(=O)CSC1=Nc1cc(-n2c(=O)cc(C(F)(F)F)n(C)c2=O)c(F)cc1Cl [Compound 155] , same question. 0.0

---

Known herbicidal rating GALAP of a selection of molecules
test system: GALAP (Galium); experiment: Postemergence herbicidal evaluation; format: in vivo, Galium aparine; conditions: postemergence, rate 0.0156 kg/ha
Just the number.

Solved entries:
> print(dat)
                                   molecule  endpoint.result
1  COc1ccc(CN2C(=O)CSC2=Nc2cc(-n3c(=O)cc(C(F)(F)F)n(C)c3=O)c(F)cc2Cl)c(OC)c1              1.0
2  Cn1c(C(F)(F)F)cc(=O)n(-c2cc(N=C3SCC(=O)N3Cc3ccc(Br)cc3)c(Cl)cc2F)c1=O              2.0
3  Cn1c(C(F)(F)F)cc(=O)n(-c2cc(N=C3SCC(=O)N3Cc3ccco3)c(Cl)cc2F)c1=O              2.0

Continue with the next molecule.
What herbicidal rating GALAP value was documented for this molecule, CCOC(=O)CN1C(=O)C(Cl)SC1=Nc1cc(-n2c(=O)cc(C(F)(F)F)n(C)c2=O)c(F)cc1Cl (stereo not shown) ? 0.0

---

Known herbicidal effect rating, SAGPY of a selection of molecules
tested on: SAGPY (Arrowhead (Pygmaea)); test: Preemergence weed control under flooded paddy conditions; assay type: in vivo, Sagittaria pygmaea; conditions: 0.0313 kg/ha, rated 3-4 weeks after treatment
Just the number.

Solved entries:
> print(dat)
                                   molecule                    quantity.kind  endpoint.result
1  Cn1c(C(F)(F)F)cc(=O)n(-c2cc(N=C3SCC(=O)N3CC(=O)OCC3CC3)c(Cl)cc2F)c1=O  herbicidal effect rating, SAGPY              0.0
2  COC(=O)CSCCN1C(=O)CSC1=Nc1cc(-n2c(=O)cc(C(F)(F)F)n(C)c2=O)c(F)cc1Cl  herbicidal effect rating, SAGPY              4.0
3  COCCN1C(=O)CSC1=Nc1cc(-n2c(=O)cc(C(F)(F)F)n(C)c2=O)c(F)cc1Cl  herbicidal effect rating, SAGPY              0.0
4  CCOC(=O)CN1C(=O)C(Cl)SC1=Nc1cc(-n2c(=O)cc(C(F)(F)F)n(C)c2=O)c(F)cc1Cl (stereo not drawn)  herbicidal effect rating, SAGPY              0.0

Notebook: pull reported herbicidal effect rating, SAGPY for SAGPY (Arrowhead (Pygmaea)), entry CCOC(=O)CN1C(=O)CSC1=Nc1cc(N2C(=O)CC(C(F)(F)F)CC2=O)c(F)cc1Cl 0.0

CN1C(=O)C(CC(=O)NO)SC1=Nc1cc(-n2c(=O)cc(C(F)(F)F)n(C)c2=O)c(F)cc1Cl (stereo not drawn) , same question. 0.0

---

tested on: ECHCG (Barnyardgrass); test: Preemergence herbicidal evaluation; type: in vivo, Echinochloa crus-galli; details: 0.0625 kg/ha, rated 4-5 weeks after treatment
quantity.kind: Preemergence herbicidal rating ECHCG
Just the number.

Solved entries:
> print(dat)
                                   compound                         quantity.kind  endpoint.result
1  CN1C(=O)C(CC(=O)NO)SC1=Nc1cc(-n2c(=O)cc(C(F)(F)F)n(C)c2=O)c(F)cc1Cl (centres unmarked)  Preemergence herbicidal rating ECHCG              8.0
2  CCCN1C(=O)CSC1=Nc1cc(-n2c(=O)cc(C(F)(F)F)n(C)c2=O)c(F)cc1Cl  Preemergence herbicidal rating ECHCG              8.0
3  C#CC(C)N1C(=O)CSC1=Nc1cc(-n2c(=O)cc(C(F)(F)F)n(C)c2=O)c(F)cc1Cl (centres unmarked)  Preemergence herbicidal rating ECHCG              0.0
4  Cn1c(C(F)(F)F)cc(=O)n(-c2cc(N=C3SCC(=O)N3CC(F)(F)F)c(Cl)cc2F)c1=O  Preemergence herbicidal rating ECHCG              7.0

Continue with the next compound.
Notebook: pull reported Preemergence herbicidal rating ECHCG for ECHCG (Barnyardgrass), entry C=CCN1C(=O)C(CC(=O)NO)SC1=Nc1cc(-n2c(=O)cc(C(F)(F)F)n(C)c2=O)c(F)cc1Cl (centres unmarked) 0.0

---

tested on: ZEAMX (Corn, Field); test: Postemergence herbicidal evaluation; format: in vivo, Zea mays; conditions: postemergence, rate 0.1250 kg/ha
Known ZEAMX herbicidal rating of a selection of compounds

> print(dat)
                                   compound            quantity.kind  endpoint.result
1  CCC1SC(=Nc2cc(-n3c(=O)cc(C(F)(F)F)n(C)c3=O)c(F)cc2Cl)N(C)C1=O (centres unmarked) [Compound 10]  ZEAMX herbicidal rating              5.3
2  CN1C(=O)CSC1=Nc1cc(N2C(=O)C3=C(CCCC3)C2=O)c(F)cc1Cl [Compound 1]  ZEAMX herbicidal rating              5.0
3  O=C1CSC(=Nc2cc(N3C(=O)C4=C(CCCC4)C3=O)c(F)cc2Cl)N1c1ccccc1 [Compound 3]  ZEAMX herbicidal rating              3.0
4  CCOC(=O)CN1C(=O)C(C)SC1=Nc1cc(-n2c(=O)cc(C(F)(F)F)n(C)c2=O)c(F)cc1Cl (centres unmarked) [Compound 12]  ZEAMX herbicidal rating              8.0

What ZEAMX herbicidal rating value was documented for this compound, C=CCN1C(=O)C(CC(=O)NOC)SC1=Nc1cc(-n2c(=O)cc(C(F)(F)F)n(C)c2=O)c(F)cc1Cl (centres unmarked) [Compound 85] ? 8.5
